src = patent US20160122421A1

# Study System: eTau 4 (FIG. 17)
# Assay Details: relative binding affinity, method not named (Table 4); fifth column, headed eTau 4
pKd: −log10 of the molar value.

Binder	pKd
VH4/Vk4 (antibody, V domains shown, member of the group m7; also called humanized IPN002 variant VH4/Vk4) VH: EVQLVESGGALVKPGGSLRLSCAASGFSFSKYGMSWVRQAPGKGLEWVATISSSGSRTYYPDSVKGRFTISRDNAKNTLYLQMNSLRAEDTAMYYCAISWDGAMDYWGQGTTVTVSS VL: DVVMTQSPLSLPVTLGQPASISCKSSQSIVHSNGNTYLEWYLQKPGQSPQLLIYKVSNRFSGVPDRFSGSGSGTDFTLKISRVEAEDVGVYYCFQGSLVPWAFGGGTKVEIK	9.34
